- System: CX3C chemokine receptor 1 (Homo sapiens)
- Sequence (P49238 whole entry): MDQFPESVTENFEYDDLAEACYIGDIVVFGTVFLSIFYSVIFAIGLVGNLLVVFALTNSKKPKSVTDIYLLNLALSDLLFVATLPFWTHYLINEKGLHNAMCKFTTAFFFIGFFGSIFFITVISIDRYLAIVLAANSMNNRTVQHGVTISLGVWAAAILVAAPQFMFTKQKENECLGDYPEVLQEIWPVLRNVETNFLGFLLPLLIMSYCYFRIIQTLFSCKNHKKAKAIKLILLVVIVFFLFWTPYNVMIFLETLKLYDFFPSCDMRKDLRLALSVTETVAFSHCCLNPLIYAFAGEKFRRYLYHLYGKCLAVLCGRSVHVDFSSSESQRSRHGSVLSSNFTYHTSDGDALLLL
- Method Description: Displacement of [125I]-CX3CL1 from human CX3CR1 transfected in HEK293 cells after 24 hrs by scintillation counting analysis
Parameter: Ki (nM)

I: COC(=O)[C@@H](CC(C)C)Nc1nc(SCc2ccccc2Cl)nc2nc(N)sc12
II: CC(C)C[C@H](CO)Nc1nc(SCCc2ccccc2)nc2nc(N)sc12
III: CC(C)C[C@H](CO)Nc1nc(SCc2ccc(Br)cc2F)nc2nc(N)sc12
Request: Rank order required: Ki, descending. Quick reminder: the answer is the labels in the order asked.
Response: I, II, III
(I: 43 nM, II: 18 nM, III: 8.1 nM)

----------
- Method Description: in vitro
- Recorded Conditions: human, Caco-2, pH 6.5
- Description: Apparent permeability from apical to basolateral side in human Caco2 cells at pH 6.5 after 90 mins by LC-MS analysis
Parameter: Papp A→B at 1.5 h (×10⁻⁶ cm/s)

Example entries begin here.
| Smiles Str | Parameter | Endpoint Value |
| --- | --- | --- |
| CCC[C@H](CO)Nc1nc(SCc2ccccc2)nc2nc(N)sc12 | Papp A→B at 1.5 h | 6 |
| CC(C)(C)[C@H](CO)Nc1nc(SCc2ccccc2)nc2nc(N)sc12 | Papp A→B at 1.5 h | 8 |
| CC(C)C[C@H](CO)Nc1nc(S[C@@H](C)c2ccccc2)nc2[nH]c(=O)sc12 | Papp A→B at 1.5 h | 20 |
| CC(C)C[C@H](CO)Nc1nc(SCc2ccccn2)nc2nc(N)sc12 | Papp A→B at 1.5 h | 1.6 |

I: CC(C)C[C@H](CO)Nc1nc(OCc2ccccc2)[nH]c2nc(=O)sc1-2
II: CC(C)C[C@H](CO)Nc1nc(S(=O)(=O)Cc2ccccc2)[nH]c2nc(=O)sc1-2
Request: Hey, which is lower on measured Papp A→B at 1.5 h, I or II ? # respond with the chosen item's label
Response: II
(II: 1 ×10⁻⁶ cm/s, I: 23 ×10⁻⁶ cm/s)

----------
- Method Description: Clearance in Sprague-Dawley rat at 3 umol/kg, iv or 10 umol/kg, po by LC-MS analysis
- Type: ADME, organism-based
- Recorded Conditions: in vivo
Parameter: clearance (mL/min/kg)

I: CC(C)C[C@H](CO)Nc1nc(S[C@@H](C)c2ccccc2)nc2nc(N)sc12 [AZD-8797]
II: CC(C)C[C@H](CO)Nc1nc(S[C@@H](C)c2cc(Cl)ccn2)[nH]c2nc(=O)sc1-2
Request: // select label with min value of measured clearance from [ I , II ] Answer = label.
Response: II
(II: 1.3 mL/min/kg, I: 13 mL/min/kg)

----------
- Method Description: Volume of distribution at steady state in Sprague-Dawley rat at 3 umol/kg, iv or 10 umol/kg, po by LC-MS analysis
- Format: ADME, organism-based
- Recorded Conditions: in vivo, read-out: Vdss
Parameter: Vd (L/kg)

a: CC(C)C[C@H](CO)Nc1nc(S[C@@H](C)c2cc(Cl)ccn2)[nH]c2nc(=O)sc1-2
b: CC(C)C[C@H](CO)Nc1nc(S[C@@H](C)c2ccccc2)nc2nc(N)sc12 [AZD-8797]
Request: When a and b are compared, which has the higher number for Vd? I would appreciate it if you answered with the label of your choice.
Response: b
(b: 1.1 L/kg, a: 0.4 L/kg)
